- measured-on: T1, human ferroportin (SLC40A1) fused in frame with GFP, stably expressed in HEK293 cells (human, UniProt Q9NP59 1-571)
- T1 sequence (looked up): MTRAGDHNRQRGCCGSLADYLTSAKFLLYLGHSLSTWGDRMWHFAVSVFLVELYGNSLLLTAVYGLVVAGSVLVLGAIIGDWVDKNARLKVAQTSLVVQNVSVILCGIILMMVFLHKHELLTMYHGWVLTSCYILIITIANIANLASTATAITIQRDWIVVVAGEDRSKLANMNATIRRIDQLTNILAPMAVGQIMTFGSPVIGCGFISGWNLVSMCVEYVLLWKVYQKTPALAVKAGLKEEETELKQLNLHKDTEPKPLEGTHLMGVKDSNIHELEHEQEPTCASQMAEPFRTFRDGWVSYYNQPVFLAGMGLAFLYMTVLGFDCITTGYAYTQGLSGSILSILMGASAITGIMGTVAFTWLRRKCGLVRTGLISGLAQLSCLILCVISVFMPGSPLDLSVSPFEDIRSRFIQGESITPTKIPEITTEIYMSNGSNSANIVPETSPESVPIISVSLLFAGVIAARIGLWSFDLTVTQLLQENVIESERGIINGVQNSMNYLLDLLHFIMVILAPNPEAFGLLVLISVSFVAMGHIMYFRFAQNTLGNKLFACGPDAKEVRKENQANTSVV
- assay-overview: cell-based or functional assay
Numbered stars: 1 amine (or outer) side, 2 acyl side, 3 side chain; on linkers, the order of the positions; unused ones are H or OH. Bridge positions count the residues as written; N and C are the ends. Square brackets hold non-standard residues; d marks the D form. Ends that are not written are not given here. * marks the point of attachment. Ida = iminodiacetic acid, O=C(CN(CC(=O)[*:3])[*:1])[*:2]; β3hF = N[C@H](CC(=O)O)Cc1ccccc1; pGlu = O=C1CC[C@@H](C(=O)O)N1; β3hP = O=C(O)C[C@@H]1CCCN1; Isovaleryl = CC(C)CC(=O)*; Sar = CNCC(=O)O
Reported Potency EC50 (nM), ferroportin-GFP internalization/degradation values for the following binders.

Please look up its Potency EC50 (nM), ferroportin-GFP internalization/degradation: [pGlu]THFPCRKF-NH2 (SMILES C[C@@H](O)[C@H](NC(=O)[C@@H]1CCC(=O)N1)C(=O)N[C@@H](Cc1c[nH]cn1)C(=O)N[C@@H](Cc1ccccc1)C(=O)N1CCC[C@H]1C(=O)N[C@@H](CS)C(=O)N[C@@H](CCCNC(=N)N)C(=O)N[C@@H](CCCCN)C(=O)N[C@@H](Cc1ccccc1)C(N)=O) [Hy-[pGlu]-THFPCRKF-NH2]
> 1000 nM

Please look up its Potency EC50 (nM), ferroportin-GFP internalization/degradation: Isovaleryl-DTHAPCIKF[Sar]PRSKGWECK-NH2 (disulfide 6-18 (inferred)) [Isovaleric acid-DTHAPCIKF-[Sarc]-PRSKGWECK-NH2]
> 10000 nM

Please look up its Potency EC50 (nM), ferroportin-GFP internalization/degradation: [Ida]THF[β3hP]CRR[β3hF]GPRSKGWVC-NH2 (disulfide 6-18 (inferred)) [[IDA]-THF-[bhPro]-CRR-[bhPhe]GPRSKGWVC-NH2]
> 1000 nM
